- tested-system: Human M3 receptor (Homo sapiens, UniProt P20309)
- Construct: purchased Perkin Elmer
- Sequence (P20309 whole entry): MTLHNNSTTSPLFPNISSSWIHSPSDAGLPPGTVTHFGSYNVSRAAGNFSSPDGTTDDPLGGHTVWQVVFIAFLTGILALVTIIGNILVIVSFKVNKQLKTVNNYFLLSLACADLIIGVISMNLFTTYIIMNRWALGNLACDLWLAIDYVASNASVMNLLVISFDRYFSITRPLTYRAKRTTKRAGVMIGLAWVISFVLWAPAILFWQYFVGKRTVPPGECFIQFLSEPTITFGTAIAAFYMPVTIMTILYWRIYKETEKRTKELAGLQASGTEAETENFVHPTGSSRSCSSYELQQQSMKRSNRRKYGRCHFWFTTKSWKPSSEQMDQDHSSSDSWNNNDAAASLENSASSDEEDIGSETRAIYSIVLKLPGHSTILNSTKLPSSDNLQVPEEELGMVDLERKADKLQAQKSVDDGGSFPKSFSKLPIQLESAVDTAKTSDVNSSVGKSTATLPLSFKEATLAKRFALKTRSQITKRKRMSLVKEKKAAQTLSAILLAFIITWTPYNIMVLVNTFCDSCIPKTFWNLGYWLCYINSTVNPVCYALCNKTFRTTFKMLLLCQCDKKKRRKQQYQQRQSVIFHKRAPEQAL
- measurement-notes: M3 Receptor radioligand binding assay
- experimental-setup: read-out: M3 IC50 activity
Form field: IC50 (one value per entry).

Answered cases to consult:
COc1ccc([C@H](Cc2c(Cl)c[n+]([O-])cc2Cl)OC(=O)c2cccc(CNC(C(=O)OCC3CCN(C)CC3)c3ccccc3)c2)cc1OC (mixture of isomers) [Example 1] ... 1 to 10 nM
COc1ccc([C@H](Cc2c(Cl)c[n+]([O-])cc2Cl)OC(=O)c2cccc(CNC(C(=O)OCC3CCN(C)CC3)c3ccccc3)c2)cc1OC (some centres unmarked) [Example 5] ... 1 to 10 nM
COc1ccc([C@H](Cc2c(Cl)c[n+]([O-])cc2Cl)OC(=O)c2ccc(CNC(C(=O)OCC3CCN(C)CC3)c3ccccc3)cc2)cc1OC (single isomer, unassigned) [Example 7] ... < 1 nM
COc1ccc([C@H](Cc2c(Cl)c[n+]([O-])cc2Cl)OC(=O)c2ccc(CNC(C(=O)OCC3CCN(C)CC3)c3cccc(O)c3)cc2)cc1OC (some centres unmarked) ... 1 to 10 nM

Please find the next compound below.
Exercise: What does the data say about its IC50? Entry: COc1ccc([C@H](Cc2c(Cl)c[n+]([O-])cc2Cl)OC(=O)c2ccc(CNC(C(=O)OCC3CCN(C)CC3)c3ccccc3)cc2)cc1OC (single isomer, unassigned) [Example 2]
Solution: 1 to 10 nM

---

- tested-system: Human recombinant PDE4B2 (Homo sapiens, UniProt Q07343)
- Sequence (Q07343 1-564 isoform Q07343-2): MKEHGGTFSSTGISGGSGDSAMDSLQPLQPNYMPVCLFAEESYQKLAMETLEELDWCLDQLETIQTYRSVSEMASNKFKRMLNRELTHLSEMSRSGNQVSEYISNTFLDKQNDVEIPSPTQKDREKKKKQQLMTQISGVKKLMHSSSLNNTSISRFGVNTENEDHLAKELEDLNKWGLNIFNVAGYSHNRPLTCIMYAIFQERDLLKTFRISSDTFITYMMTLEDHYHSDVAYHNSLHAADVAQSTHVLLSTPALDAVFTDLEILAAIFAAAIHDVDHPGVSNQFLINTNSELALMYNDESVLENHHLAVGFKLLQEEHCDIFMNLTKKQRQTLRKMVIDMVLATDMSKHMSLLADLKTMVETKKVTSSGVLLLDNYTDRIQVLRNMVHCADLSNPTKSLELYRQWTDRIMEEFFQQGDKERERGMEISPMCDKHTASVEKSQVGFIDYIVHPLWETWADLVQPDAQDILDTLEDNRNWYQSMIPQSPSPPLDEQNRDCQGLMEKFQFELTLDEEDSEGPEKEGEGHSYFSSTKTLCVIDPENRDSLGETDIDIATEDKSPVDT
- measurement-notes: PDE4B2 HTRF assay
Recorded IC50 values for a group of molecules are listed next.

Record excerpt, results attached:
COc1ccc([C@H](Cc2c(Cl)c[n+]([O-])cc2Cl)OC(=O)c2ccc(CNC(C(=O)OCC3CCN(C)CC3)c3ccccc3)cc2)cc1OC (single isomer, unassigned) [Example 7] ... 1 to 10 nM
COc1ccc([C@H](Cc2c(Cl)c[n+]([O-])cc2Cl)OC(=O)c2ccc(CNC(C(=O)OCC3CCN(C)CC3)c3cccc(O)c3)cc2)cc1OC (some centres unmarked) [Example 11] ... 1 to 10 nM
COc1ccc([C@H](Cc2c(Cl)c[n+]([O-])cc2Cl)OC(=O)c2ccc(CNC(C(=O)OCC3CCN(C)CC3)c3ccccc3)cc2)cc1OC (single isomer, unassigned) [Example 2] ... 1 to 10 nM
COc1ccc([C@H](Cc2c(Cl)c[n+]([O-])cc2Cl)OC(=O)c2cccc(CNC(C(=O)OCC3CCN(C)CC3)c3ccccc3)c2)cc1OC (mixture of isomers) [Example 1] ... < 1 nM

Please turn your attention to the following entry.
Exercise: Endpoint output: IC50 of COc1ccc([C@H](Cc2c(Cl)c[n+]([O-])cc2Cl)OC(=O)c2cccc(CNC(C(=O)OCC3CCN(C)CC3)c3ccccc3)c2)cc1OC (some centres unmarked) [Example 5] . Value?
Solution: 1 to 10 nM
